Listed here are molecules together with their documented Potency.
Assay: qHTS Assay for Identification of Small Molecule Antagonists for Thrombopoietin (TPO) Signaling Pathway (AID 918); further: potency means the concentration at half of the fitted maximal effect; nearly all actives have a fitted effect of over 60% in size
Settings: TPO-dependent cell signaling reporter, antagonist mode
Results filed as inconclusive are left out. Activity calls are given as the source filed them. The call rests on the fitted dose curve; in most records, active means well fitted inhibition curve with a large enough effect; inconclusive means small, poorly fitted or top-dose-only effect, or effect the other way, or another doubt; inactive means flat fitted curve, though single readings scatter.

Sample records with Potency:
CC#C[C@]1(O)CC[C@H]2[C@@H]3CCC4=CC(=O)CCC4=C3[C@H](c3ccc(N(C)C)cc3)C[C@@]21C : 5.01 µM (active)
S=C(Nc1ccccc1)Nc1nccs1 : 20 µM (active)
C=CCN1CCc2cc(O)c(O)cc2[C@H](c2ccccc2)C1 : 5.01 µM (active)

Looking up "CC(C)(C)c1ccc(S(=O)(=O)/C=C\C#N)cc1" , I see its Potency listed as 0.794 µM (active)

----------
Assay: Vero-766 cells viability qHTS against the NCATS CANVASS Library: Counterscreen for Zika virus inhibition assay (AID 1347394); further: nearly all actives have a fitted effect of over 60% in size
Settings: Vero 766 viability, CellTiter-Glo luminescence, 72 h; series mostly up to 46.1 µM
Inconclusive results are not listed. Calls of active or inactive are those of the source. Calls follow the shape of the dose curve; as a rule, active = well fitted cell-killing curve with a large enough effect; inconclusive = small, poorly fitted or top-dose-only effect; inactive = flat fitted curve, though single readings scatter.
Answer with one of the outcomes given here: active, inactive

Use the examples below as a reference point.
O=C(O)CC1OCc2c(O)cccc21 (stereo not drawn) : inactive
CC1C(=O)C23CCC1C[C@]21O[C@@H]2C(C)(C)C=CC(=O)[C@@]23COC1=O (stereo partly drawn) : inactive
CC1=CC[C@@]2(C[C@@H]1O)[C@@H](C(=O)O)CC[C@H]2C(C)C : inactive

INPUT: Write down the call the test reported for this compound. Item: C/C(=C\[C@H](C)C(=O)CCCC1CC(=O)NC(=O)C1)C(O)[C@@H](C)[C@H](O)C/C=C/CC/C=C/C(=O)O (stereo partly drawn)
OUTPUT: inactive

INPUT: Write down the call the test reported for this compound. Item: O=C1CC(c2cc(O)cc(O)c2)Oc2cc(O)ccc21 (stereo not drawn)
OUTPUT: inactive

INPUT: Write down the call the test reported for this compound. Item: "C[C@@H]1C(=O)[C@]23CC[C@H]1C[C@]21O[C@H]2C(C)(C)C=CC(=O)[C@]23COC1=O"
OUTPUT: inactive

INPUT: Write down the call the test reported for this compound. Item: "CN1CCc2cc3c(c4c2[C@H]1[C@@H](O)c1ccccc1-4)OCO3"
OUTPUT: inactive

INPUT: Write down the call the test reported for this compound. Item: "O=Cc1ccc2n1C[C@@]1(OC2)O[C@H](CO)[C@@H](O)[C@@H]1O"
OUTPUT: inactive

INPUT: Write down the call the test reported for this compound. Item: "O=C1C[C@@H](c2ccc(O)c(-c3c(O)cc(O)c4c3O[C@H](c3ccc(O)cc3)CC4=O)c2)Oc2cc(O)cc(O)c21"
OUTPUT: inactive

INPUT: Write down the call the test reported for this compound. Item: C=C1C[C@@]23C=CC(=O)[C@@](C)(CCC(=O)Nc4c(OC5O[C@H](CO)[C@@H](O)[C@H](O)[C@H]5O)ccc(C(=O)O)c4O)C2C[C@@H]1CC3 (stereo partly drawn)
OUTPUT: inactive

----------
Target: N-terminal Xaa-Pro-Lys N-methyltransferase 1 (Homo sapiens)
Assay: qHTS Assay for Inhibitors of N-terminal methyltransferase 1 (NTMT1): LOPAC validation of the NTMT1 SAHH-coupled ThioGlo3 Assay (AID 1347143);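 further: SAH from peptide methylation measured as thiol fluorescence via SAHH coupling and ThioGlo3; nearly all actives have a fitted effect of over 70% in size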
Settings: recombinant NTMT1, SAHH-coupled ThioGlo3 fluorescence; series mostly up to 114 µM
Records with an inconclusive call do not appear. Activity calls are given as the source filed them. Calls come from the whole dose curve; as a rule, active = well fitted inhibition curve with a large enough effect; inconclusive = small, poorly fitted or top-dose-only effect; inactive = no such curve, though single readings can be large or run the other way.
Answer with one of the outcomes given here: True for active, False for inactive

Use the examples below as a reference point.
Oc1cc2c(c(Cl)c1O)CCNCC2c1ccccc1 (stereo unspecified) : True
C/C=C/CC(C)C(O)C1C(=O)NC(CC)C(=O)N(C)CC(=O)N(C)C(CC(C)C)C(=O)NC(C(C)C)C(=O)N(C)C(CC(C)C)C(=O)NC(C)C(=O)NC(C)C(=O)N(C)C(CC(C)C)C(=O)N(C)C(CC(C)C)C(=O)N(C)C(C(C)C)C(=O)N1C (stereo unspecified) : False
N.N.N.N.N.N.N.N.N.N.N.N.N.N.O.O.[Cl-].[Cl-].[Cl-].[Cl-].[Cl-].[Cl-].[Ru+4].[Ru+5].[Ru+5] : True
O=Nc1c(-c2c(O)[nH]c3ccccc23)[nH]c2ccccc12 : True
N.N.O=C(O)C1(C(=O)O)CCC1.[Pt+2] : True

Then there is this compound:
INPUT: Write down the call the test reported for this compound. Item: "N#C/C(=C\c1ccc(O)c(O)c1)C(=O)Nc1ccccc1"
OUTPUT: True

----------
Assay: qHTS for Hypoxia signaling pathway (HIF-1) antagonists against the NCATS CANVASS Library (AID 1347374); further: nearly all actives have a fitted effect of over 60% in size
Settings: HRE-bla ME-180 cells, HIF-1 beta-lactamase reporter, CoCl2; series mostly up to 38.3 µM
Records with an inconclusive call do not appear. Active and inactive are the calls of the source. Calls come from the whole dose curve; as a rule, active = well fitted inhibition curve with a large enough effect; inconclusive = small, poorly fitted or top-dose-only effect; inactive = no such curve, though single readings can be large or run the other way.
Answer with one of the outcomes given here: active, inactive

O=c1cc(-c2ccc(O)c(O[C@@H]3O[C@H](CO)[C@@H](O)[C@H](O)[C@H]3O)c2)oc2cc(O[C@@H]3O[C@H](CO)[C@@H](O)[C@H](O)[C@H]3O)cc(O)c12 : inactive

INPUT: Write down the call the test reported for this compound. Item: "COc1c(O)cc2oc(-c3ccccc3)cc(=O)c2c1O"
OUTPUT: active

INPUT: Write down the call the test reported for this compound. Item: "O=C(O)[C@@]12CO[C@@]3(O)C4CCN(CC[C@H]31)[C@H]4c1c2[nH]c2ccccc12"
OUTPUT: inactive

INPUT: Write down the call the test reported for this compound. Item: C=C1[C@H]2CC[C@@]3(C=CC(=O)[C@@](C)(CCC(=O)Nc4c(O)ccc(C(=O)O)c4O)C3C2)[C@H]1O (stereo not given in full)
OUTPUT: inactive

INPUT: Write down the call the test reported for this compound. Item: "CCCCCC[C@H](CCCCC[C@@H](O)C(N)=O)OC(=O)[C@@H]1CC=CN1C(=O)c1ccccc1O"
OUTPUT: inactive

INPUT: Write down the call the test reported for this compound. Item: "COc1cc(/C=C/C(=O)O)ccc1O"
OUTPUT: inactive

INPUT: Write down the call the test reported for this compound. Item: O=c1cc(-c2ccc(O)cc2)oc2c([C@@H]3OC(CO)[C@H](O)[C@@H](O)[C@H]3O)c(O)cc(O)c12 (stereo not given in full)
OUTPUT: inactive

INPUT: Write down the call the test reported for this compound. Item: Oc1ccc(/C=C2/c3cc(O)cc(O)c3C(c3ccc(O)cc3)[C@H]2c2cc(O)cc(O)c2)cc1 (stereo not given in full)
OUTPUT: inactive

INPUT: Write down the call the test reported for this compound. Item: "CC1=CC2=C[C@H](C)C[C@@]23OC(=C(C)C3=O)CC(C)(C)/C=C/C1=O"
OUTPUT: active

INPUT: Write down the call the test reported for this compound. Item: "COc1ccc2cc(NC(=O)C3=NO[C@H]4[C@H](O)C=C[C@@H](Cl)[C@@]4(O)C3)c(=O)oc2c1OC"
OUTPUT: inactive

INPUT: Write down the call the test reported for this compound. Item: "C=C1C(=O)O[C@H]2C[C@H](C)[C@@H]3CC(=O)C(C)=C3[C@H](O)[C@H]12"
OUTPUT: active

INPUT: Write down the call the test reported for this compound. Item: "C[C@@H]1O[C@H](c2c(O)cc(O)c3c(=O)cc(-c4ccc(O)cc4)oc23)[C@H](O)[C@H](O)[C@H]1O"
OUTPUT: inactive

INPUT: Write down the call the test reported for this compound. Item: "O=C1c2c(O)cc(O)cc2O[C@@H](c2ccc(O)cc2)[C@@H]1c1c(O)cc(O)c2c(=O)cc(-c3ccc(O)c(O)c3)oc12"
OUTPUT: inactive

----------
Experiment: qHTS for Inhibitors of Plasmodium falciparum (7G8) proliferation (AID 504316); further: nearly all actives have a fitted effect of over 65% in size
Conditions: P. falciparum 7G8 in erythrocytes, SYBR Green DNA, 72 h; series mostly up to 6.7 µM
Inconclusive results are not listed. The source made the active and inactive calls. The call rests on the fitted dose curve; in most records, active means well fitted inhibition curve with a large enough effect; inconclusive means small, poorly fitted or top-dose-only effect; inactive means flat fitted curve, though single readings scatter.
Answer with one of the outcomes given here: t = active, f = inactive

Use the examples below as a reference point.
COC(=O)N[C@@H](c1cccc(C)c1)[C@@H](C)[N+](=O)[O-] : f
CC1(OC(=O)C2CCCC2)C(=O)C=C2C=C3CCCN3C=C2C1=O (stereo not given) : f
COCCN1C(=O)NC(CCc2ccccc2)C(C(C)=O)=C1C (stereo not given) : f
COc1cccc2c1[C@H](C=Cc1ccccc1)[C@@H]([C@H](O)COC(C)=O)OC2 : f
CCCCc1nc2c(c3c1C[C@H](C)OC3)CN(S(=O)(=O)c1ccc(NC(C)=O)cc1)CC2 : f

INPUT: Write down the call the test reported for this compound. Item: CCCCCCCC1=CC2=CC(=O)C(C)(O)C(=O)C2=CN1CCCC (stereo not given)
OUTPUT: f

INPUT: Write down the call the test reported for this compound. Item: "CCOC(=O)NN=C1C[C@@H](O)[C@@H](O)[C@@H]2[C@H]3C(=O)N(C[C@@H]4CCCO4)C(=O)[C@@H]3CC[C@H]12"
OUTPUT: f
